System: LOC_OS01G52050-cb004;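 further: purified Escherichia coli-expressed rice kinase domain construct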
Sequence (as listed by the source): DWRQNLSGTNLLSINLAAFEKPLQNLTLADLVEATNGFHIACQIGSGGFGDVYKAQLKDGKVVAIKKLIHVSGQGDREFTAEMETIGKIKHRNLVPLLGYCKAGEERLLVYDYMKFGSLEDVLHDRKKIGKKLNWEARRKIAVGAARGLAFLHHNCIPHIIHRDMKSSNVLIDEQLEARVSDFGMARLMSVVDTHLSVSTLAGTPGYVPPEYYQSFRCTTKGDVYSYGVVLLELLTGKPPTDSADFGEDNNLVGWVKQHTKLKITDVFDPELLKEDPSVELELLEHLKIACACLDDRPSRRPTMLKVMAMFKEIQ
Protocol Details: thermal shift delta Tm vs DMSO control; higher = stronger stabilization (binding)
Experimental Setup: 12.5 µM; protein concentration 2 µM
Structures can show the parent of a compound that is named as a salt.
Classify by measured thermal shift delta Tm: t if it is equal to or exceeds 0.8 °C, f if it is smaller.

Prompt: I'd appreciate it if you could say whether CNC(=O)c1ccccc1Nc1nc(Nc2ccc(N3CCOCC3)cc2OC)ncc1Cl has thermal shift delta Tm at least equal to 0.8 °C.
Completion: t

Prompt: I'd appreciate it if you could say whether CC(C)(C)Cn1c(N)nc2ccc(-c3[nH]c(C(C)(C)C)nc3-c3ccc(F)cc3)nc21 has thermal shift delta Tm at least equal to 0.8 °C.
Completion: f

Prompt: I'd appreciate it if you could say whether Cc1c(C(=O)Nc2ccc(Oc3ccnc4[nH]cc(-c5ccccc5)c34)c(F)c2)c(=O)n(-c2ccc(F)cc2)n1C has thermal shift delta Tm at least equal to 0.8 °C.
Completion: t

Prompt: I'd appreciate it if you could say whether Cc1ccc(S(=O)(=O)/C=C/C#N)cc1 has thermal shift delta Tm at least equal to 0.8 °C.
Completion: f

Prompt: I'd appreciate it if you could say whether C[C@H]1[C@H](C)CC[C@]2(C(=O)O)CC[C@]3(C)C(=CC[C@@H]4[C@@]5(C)C[C@@H](O)[C@H](O)[C@@](C)(CO)[C@@H]5CC[C@]43C)[C@H]12 [Asiatic Acid] has thermal shift delta Tm at least equal to 0.8 °C.
Completion: f

Prompt: I'd appreciate it if you could say whether Cn1cc(C2=C(c3ccc(Cl)cc3Cl)C(=O)NC2=O)c2ccccc21 has thermal shift delta Tm at least equal to 0.8 °C.
Completion: t

Prompt: I'd appreciate it if you could say whether O=c1sn(-c2cccc3ccccc23)c(=O)n1Cc1ccccc1 [Tideglusib] has thermal shift delta Tm at least equal to 0.8 °C.
Completion: f

Prompt: I'd appreciate it if you could say whether C[C@@H](Oc1ccc2[nH]nc(/C=C/c3cnn(CCO)c3)c2c1)c1c(Cl)cncc1Cl has thermal shift delta Tm at least equal to 0.8 °C.
Completion: t

Prompt: I'd appreciate it if you could say whether Oc1cccc(-c2nc(N3CCOCC3)c3oc4ncccc4c3n2)c1 has thermal shift delta Tm at least equal to 0.8 °C.
Completion: f

Prompt: I'd appreciate it if you could say whether C=CC(=O)Nc1cccc(Nc2nc(Nc3ccc(N4CCN(C(C)=O)CC4)cc3OC)ncc2C(F)(F)F)c1 [Rociletinib (CO-1686, AVL-301)] has thermal shift delta Tm at least equal to 0.8 °C.
Completion: f

Prompt: I'd appreciate it if you could say whether FC(F)(F)c1ccc(Nc2nc3ccc(Oc4ccnc(-c5ncc(C(F)(F)F)[nH]5)c4)cc3[nH]2)cc1 [Raf265 derivative] has thermal shift delta Tm at least equal to 0.8 °C.
Completion: t

Prompt: I'd appreciate it if you could say whether CC(C)n1nc(-c2cc3cc(O)ccc3[nH]2)c2c(N)ncnc21 [Torkinib (PP242)] has thermal shift delta Tm at least equal to 0.8 °C.
Completion: t

Prompt: I'd appreciate it if you could say whether O=C(O)c1cc(O)c2c(c1)[C@@H]([C@H]1c3cc(C(=O)O)cc(O)c3C(=O)c3c(O[C@@H]4O[C@H](CO)[C@@H](O)[C@H](O)[C@H]4O)cccc31)c1cccc(O[C@@H]3O[C@H](CO)[C@@H](O)[C@H](O)[C@H]3O)c1C2=O [Sennoside B] has thermal shift delta Tm at least equal to 0.8 °C.
Completion: t

Prompt: I'd appreciate it if you could say whether Cn1cnc2c(F)c(Nc3ccc(Br)cc3F)c(C(=O)NOCCO)cc21 has thermal shift delta Tm at least equal to 0.8 °C.
Completion: f

Prompt: I'd appreciate it if you could say whether C=CC(=O)Nc1ccc2ncnc(Nc3ccc(OCc4cccc(F)c4)c(Cl)c3)c2c1 has thermal shift delta Tm at least equal to 0.8 °C.
Completion: t

Prompt: I'd appreciate it if you could say whether CNC(=O)c1cc(Oc2ccc(NC(=O)Nc3ccc(Cl)c(C(F)(F)F)c3)cc2)ccn1 [Sorafenib Tosylate] has thermal shift delta Tm at least equal to 0.8 °C.
Completion: t
